Test system: H322
EXPERIMENTAL_PROTOCOL: MTT assay, growth inhibition by deguelin or deguelin derivatives
Format: cell-based
CONDITION_SET: H322, 1 μM, 3 days
MEASURED_ATTRIBUTE: MTT assay reading, Average
Quick one: just the number, no unit, thanks!

See these solved cases before continuing.
What measured MTT assay reading, Average is associated with COc1cc2c(cc1OC)[C@]1(O)C(=O)c3ccc4c(c3O[C@@H]1CO2)C=CC(C)(C)O4 on H322?
0.2089

What measured MTT assay reading, Average is associated with C=C(C)[C@H]1Cc2c(ccc3c2O[C@@H]2COc4cc(OC)c(OC)cc4[C@@H]2C3=O)O1 on H322?
0.2547

What measured MTT assay reading, Average is associated with COc1cc2c(cc1OC)-c1c(oc3c4c(ccc3c1=O)OC(C)(C)C=C4)CO2 [7a,13a-dehydrodeguelin] on H322?
0.8379

Next compound, please.
What measured MTT assay reading, Average is associated with C=C(C)[C@H]1Cc2c(ccc3c(=O)c4c(oc23)COc2cc(OC)c(OC)cc2-4)O1 [6a,2a-dehydrorotenone] on H322?
0.7213

---

Tested on: H460
EXPERIMENTAL_PROTOCOL: MTT assay, growth inhibition by deguelin or deguelin derivatives
Type: cell-based
CONDITION_SET: H460, 0.01 μM, 3 days
# MTT assay reading, Average annotations

Endpoint output: MTT assay reading, Average of C=C(C)[C@H]1Cc2c(ccc3c(=O)c4c(oc23)COc2cc(OC)c(OC)cc2-4)O1 [6a,2a-dehydrorotenone] . Value?
1.6774

***
Endpoint output: MTT assay reading, Average of COc1cc2c(cc1OC)-c1c(oc3c4c(ccc3c1=O)OC(C)(C)C=C4)CO2 [7a,13a-dehydrodeguelin] . Value?
1.4779

Endpoint output: MTT assay reading, Average of COc1cc2c(cc1OC)[C@]1(O)C(=O)c3ccc4c(c3O[C@@H]1CO2)C=CC(C)(C)O4 . Value?
0.0956

Endpoint output: MTT assay reading, Average of C=C(C)[C@H]1Cc2c(ccc3c2O[C@@H]2COc4cc(OC)c(OC)cc4[C@@H]2C3=O)O1 . Value?
0.2486

---

Test system: H460
EXPERIMENTAL_PROTOCOL: MTT assay, growth inhibition by deguelin or deguelin derivatives
Assay type: cell-based
CONDITION_SET: H460, 0.5 μM, 3 days
# MTT assay reading, Average annotations
Quick one: just the number, no unit, thanks!

What measured MTT assay reading, Average is associated with C=C(C)[C@H]1Cc2c(ccc3c2O[C@@H]2COc4cc(OC)c(OC)cc4[C@@H]2C3=O)O1 on H460?
0.1499

***
What measured MTT assay reading, Average is associated with COc1cc2c(cc1OC)[C@]1(O)C(=O)c3ccc4c(c3O[C@@H]1CO2)C=CC(C)(C)O4 on H460?
0.141

What measured MTT assay reading, Average is associated with C=C(C)[C@H]1Cc2c(ccc3c(=O)c4c(oc23)COc2cc(OC)c(OC)cc2-4)O1 [6a,2a-dehydrorotenone] on H460?
1.49

What measured MTT assay reading, Average is associated with COc1cc2c(cc1OC)-c1c(oc3c4c(ccc3c1=O)OC(C)(C)C=C4)CO2 [7a,13a-dehydrodeguelin] on H460?
1.3309

---

# % control annotations
System: H460
EXPERIMENTAL_PROTOCOL: MTT assay, growth inhibition by deguelin or deguelin derivatives
Assay type: cell-based
CONDITION_SET: H460, 0.01 μM, 3 days
Supply the numeric figure in %, leaving out any unit text.

See these solved cases before continuing.
Endpoint output: % control of COc1cc2c(cc1OC)-c1c(oc3c4c(ccc3c1=O)OC(C)(C)C=C4)CO2 [7a,13a-dehydrodeguelin] . Value?
0.86

Endpoint output: % control of C=C(C)[C@H]1Cc2c(ccc3c2O[C@@H]2COc4cc(OC)c(OC)cc4[C@@H]2C3=O)O1 . Value?
0.14

Endpoint output: % control of COc1cc2c(cc1OC)[C@]1(O)C(=O)c3ccc4c(c3O[C@@H]1CO2)C=CC(C)(C)O4 . Value?
0.05

Next compound, please.
Endpoint output: % control of C=C(C)[C@H]1Cc2c(ccc3c(=O)c4c(oc23)COc2cc(OC)c(OC)cc2-4)O1 [6a,2a-dehydrorotenone] . Value?
0.96

---

System: A549
EXPERIMENTAL_PROTOCOL: MTT assay, growth inhibition by deguelin or deguelin derivatives
Type: cell-based
CONDITION_SET: A549, 0.01 μM, 3 days
MEASURED_ATTRIBUTE: MTT assay reading, Average

See these solved cases before continuing.
Endpoint output: MTT assay reading, Average of COc1cc2c(cc1OC)[C@]1(O)C(=O)c3ccc4c(c3O[C@@H]1CO2)C=CC(C)(C)O4 [tephrosin] . Value?
0.2403

Endpoint output: MTT assay reading, Average of C=C(C)[C@H]1Cc2c(ccc3c(=O)c4c(oc23)COc2cc(OC)c(OC)cc2-4)O1 [6a,2a-dehydrorotenone] . Value?
1.7067

Endpoint output: MTT assay reading, Average of COc1cc2c(cc1OC)-c1c(oc3c4c(ccc3c1=O)OC(C)(C)C=C4)CO2 [7a,13a-dehydrodeguelin] . Value?
1.2597

***
Endpoint output: MTT assay reading, Average of C=C(C)[C@H]1Cc2c(ccc3c2O[C@@H]2COc4cc(OC)c(OC)cc4[C@@H]2C3=O)O1 [rotenone] . Value?
0.463

---

System: H1299
EXPERIMENTAL_PROTOCOL: MTT assay, growth inhibition by deguelin or deguelin derivatives
Format: cell-based
CONDITION_SET: H1299, 0.1 μM, 3 days
MEASURED_ATTRIBUTE: MTT assay reading, Average

Endpoint output: MTT assay reading, Average of C=C(C)[C@H]1Cc2c(ccc3c2O[C@@H]2COc4cc(OC)c(OC)cc4[C@@H]2C3=O)O1 [rotenone] . Value?
0.1907

Endpoint output: MTT assay reading, Average of COc1cc2c(cc1OC)[C@]1(O)C(=O)c3ccc4c(c3O[C@@H]1CO2)C=CC(C)(C)O4 [tephrosin] . Value?
0.7746

Endpoint output: MTT assay reading, Average of COc1cc2c(cc1OC)-c1c(oc3c4c(ccc3c1=O)OC(C)(C)C=C4)CO2 [7a,13a-dehydrodeguelin] . Value?
1.2374

***
Endpoint output: MTT assay reading, Average of C=C(C)[C@H]1Cc2c(ccc3c(=O)c4c(oc23)COc2cc(OC)c(OC)cc2-4)O1 [6a,2a-dehydrorotenone] . Value?
1.3907

---

# MTT assay reading, Average annotations
Tested on: H322
EXPERIMENTAL_PROTOCOL: MTT assay, growth inhibition by deguelin or deguelin derivatives
Type: cell-based
CONDITION_SET: H322, 0.5 μM, 3 days
Quick one: just the number, no unit, thanks!

See these solved cases before continuing.
Endpoint output: MTT assay reading, Average of C=C(C)[C@H]1Cc2c(ccc3c2O[C@@H]2COc4cc(OC)c(OC)cc4[C@@H]2C3=O)O1 . Value?
0.322

Endpoint output: MTT assay reading, Average of COc1cc2c(cc1OC)[C@]1(O)C(=O)c3ccc4c(c3O[C@@H]1CO2)C=CC(C)(C)O4 . Value?
0.1343

Endpoint output: MTT assay reading, Average of C=C(C)[C@H]1Cc2c(ccc3c(=O)c4c(oc23)COc2cc(OC)c(OC)cc2-4)O1 [6a,2a-dehydrorotenone] . Value?
0.828

Next molecule, please.
Endpoint output: MTT assay reading, Average of COc1cc2c(cc1OC)-c1c(oc3c4c(ccc3c1=O)OC(C)(C)C=C4)CO2 [7a,13a-dehydrodeguelin] . Value?
0.866

---

System: H322
EXPERIMENTAL_PROTOCOL: MTT assay, growth inhibition by deguelin or deguelin derivatives
Format: cell-based
CONDITION_SET: H322, 0.1 μM, 3 days
MEASURED_ATTRIBUTE: MTT assay reading, Average
Quick one: just the number, no unit, thanks!

See these solved cases before continuing.
Endpoint output: MTT assay reading, Average of COc1cc2c(cc1OC)-c1c(oc3c4c(ccc3c1=O)OC(C)(C)C=C4)CO2 [7a,13a-dehydrodeguelin] . Value?
1.0019

Endpoint output: MTT assay reading, Average of C=C(C)[C@H]1Cc2c(ccc3c(=O)c4c(oc23)COc2cc(OC)c(OC)cc2-4)O1 [6a,2a-dehydrorotenone] . Value?
0.8656

Endpoint output: MTT assay reading, Average of COc1cc2c(cc1OC)[C@]1(O)C(=O)c3ccc4c(c3O[C@@H]1CO2)C=CC(C)(C)O4 . Value?
0.7197

Next compound, please.
Endpoint output: MTT assay reading, Average of C=C(C)[C@H]1Cc2c(ccc3c2O[C@@H]2COc4cc(OC)c(OC)cc4[C@@H]2C3=O)O1 . Value?
0.3726
